assay: In vitro intrinsic and hepatic clearance, rat; assay type: in vitro ADME
Below, each entry is listed with its recorded rat CLINT.
QUANTITY: rat CLINT (mL/min/kg)

>>> recorded_result("Cc1ccoc1C(=O)Nc1ccc(N2C(=O)c3cccc(F)c3C2=O)c(Cl)c1 [17e]")
207
>>> recorded_result("Cc1ccoc1C(=O)Nc1ccc(N2C(=O)c3ccncc3C2=O)c(Cl)c1 [17g]")
405
>>> recorded_result("O=C(Nc1ccc(N2C(=O)c3cccc(Cl)c3C2=O)c(Cl)c1)c1ncccc1Cl [compound 8, reference compound]")
39.9
>>> recorded_result("O=C(Nc1nc(C(F)(F)F)co1)C1c2ccccc2Oc2ccccc21 [compound 5, reference compound]")
661
>>> recorded_result("Cc1ccoc1C(=O)Nc1ccc(N2C(=O)c3ccc(Cl)cc3C2=O)c(Cl)c1 [17d]")
22.8

###

test: In vitro intrinsic and hepatic clearance, rat; type: in vitro ADME
QUANTITY: rat CLHEP (mL/min/kg)

>>> recorded_result("Cc1ccoc1C(=O)Nc1ccc(N2C(=O)c3ccncc3C2=O)c(Cl)c1 [17g]")
59.7
>>> recorded_result("O=C(Nc1nc(C(F)(F)F)co1)C1c2ccccc2Oc2ccccc21 [compound 5, reference compound]")
63.3
>>> recorded_result("Cc1ccoc1C(=O)Nc1ccc(N2C(=O)c3ccc(Cl)cc3C2=O)c(Cl)c1 [17d]")
17.2
>>> recorded_result("Cc1ccoc1C(=O)Nc1ccc(N2C(=O)c3cccc(F)c3C2=O)c(Cl)c1 [17e]")
52.3

###

experiment: Rat iv PK; format: in vivo; conditions: rat, plasma, iv, 0.2 mg/kg, CLp, rat iv PK (0.2 mg/kg)
QUANTITY: clearance (L/h/kg)

>>> recorded_result("Cc1ccoc1C(=O)Nc1ccc(N2C(=O)c3ccncc3C2=O)c(Cl)c1 [17g]")
17

###

Below, each entry is listed with its recorded human CLINT.
experiment: In vitro intrinsic and hepatic clearance, human; type: in vitro ADME
QUANTITY: human CLINT (mL/min/kg)

>>> recorded_result("Cc1ccoc1C(=O)Nc1ccc(N2C(=O)c3ccncc3C2=O)c(Cl)c1 [17g]")
167
>>> recorded_result("O=C(Nc1ccc(N2C(=O)c3cccc(Cl)c3C2=O)c(Cl)c1)c1ncccc1Cl [compound 8, reference compound]")
17.2
>>> recorded_result("Cc1ccoc1C(=O)Nc1ccc(N2C(=O)c3cccc(F)c3C2=O)c(Cl)c1 [17e]")
3.10
>>> recorded_result("Cc1ccoc1C(=O)Nc1ccc(N2C(=O)c3ccc(Cl)cc3C2=O)c(Cl)c1 [17d]")
2.90
>>> recorded_result("O=C(Nc1nc(C(F)(F)F)co1)C1c2ccccc2Oc2ccccc21 [compound 5, reference compound]")
262
